# Test system: RPMI-8226 leukemia
# Test: NCI tumour cell line growth inhibition, 48 h
The molecules listed here are annotated with their TGI.
Test Readout: TGI

INSERT INTO assay_data (molecule, test_readout, recorded_measurement) VALUES
  ('COc1cc(OC)cc(C(=O)CC(=O)c2cc(OC)cc(OC)c2)c1', 'TGI', '> 100 µM'),
  ('CCNC(=S)NNC(=O)C12CC3CC(CC(C3)C1)C2', 'TGI', '> 100 µM'),
  ('O=C(/C(=C/c1ccc(Cl)cc1)c1ccccc1)c1ccccc1', 'TGI', '45.4 µM'),
  ('COC(=O)/C(=C/c1ccc(OC)cc1)C(C(=O)O)=C1CCCC1', 'TGI', '> 100 µM'),
  ('On1c(-c2ccccc2)c(-c2ccccc2N2CCCC2)c2ccccc21', 'TGI', '> 100 µM'),
  ('C[C@@H]1C[C@@H]([C@@H](CC2CC(=O)NC(=O)C2)OC(=O)CC(=O)c2ccccc2)C(=O)[C@@H](C)C1', 'TGI', '> 100 µM'),
  ('CCOC(=O)c1c(-c2ccc(O)c(OC)c2)c(C#N)c(=S)n(C2OC(CO)C(O)C(O)C2O)c1-c1ccccc1 (stereo not given)', 'TGI', '> 100 µM'),
  ('C=C1C(=O)CC2C1CC(=O)/C(C)=C/CCC(C)(O)C2O (stereo not given)', 'TGI', '> 37.9 µM'),
  ('O=[N+]([O-])C(=C(Nc1ccccc1)Nc1ccccc1)C(Cl)=C(Cl)Cl', 'TGI', '65.9 µM'),
  ('O=C(Nc1cccc(C(F)(F)F)c1)c1ccc(NC2=C(Cl)C(=O)N(Cc3ccc(Cl)cc3Cl)C2=O)cc1', 'TGI', '5.08 µM'),
  ('CN1CCC(=O)/C(=C/c2ccccc2)C1', 'TGI', '15.7 µM'),
  ('CC1OC(c2ccc3c(OCc4ccccc4)cccc3c2O)CC(OCc2ccccc2)[C@H]1OCc1ccccc1 (stereo not given in full)', 'TGI', '> 10 µM'),
  ('Cc1ccc(C)c(NC(=O)c2cccc([N+](=O)[O-])c2O)c1', 'TGI', '> 100 µM'),
  ('C/C(=N\N=C1/C(=O)OC(c2ccccc2)=C1C(=O)c1ccccc1)c1ccc([N+](=O)[O-])cc1', 'TGI', '48.9 µM'),
  ('O=C(O)C(Cl)(Cl)Cl', 'TGI', '> 100 µM'),
  ('CCCCCCCCCCCCCCCCNc1cccc2ccccc12', 'TGI', '> 100 µM'),
  ('N[C@@H](Cc1ccccc1)C(=O)N1CCC[C@@H]1P(=O)(Oc1ccccc1)Oc1ccccc1', 'TGI', '> 100 µM'),
  ('O=[N+]([O-])C(=C(Nc1cccc2cccnc12)Nc1cccc2cccnc12)C(Cl)=C(Cl)Cl', 'TGI', '> 100 µM'),
  ('Nc1ncc(-c2ccc3ncnc(Nc4ccc(F)c(Cl)c4)c3c2)cn1', 'TGI', '7.51 µM'),
  ('C=CCCCCC1CCC2CCC(CCCCC=C)N12 (stereo not given)', 'TGI', '41 µM'),
  ('COc1ccc(C(=O)Nc2ccc(O)c(=O)cc2)cc1', 'TGI', '> 100 µM'),
  ('O=C1CCC2(c3ccc(Cl)cc3)Nc3cc(Cl)ccc3N12 (stereo not given)', 'TGI', '> 100 µM'),
  ('NNC(=O)CNc1cccc(Br)c1', 'TGI', '> 100 µM'),
  ('NC(=O)c1c(NC(=O)c2ccccc2)sc2c1CCC(=O)C2', 'TGI', '0.751 µM'),
  ('O=C(O)c1ccccc1CC(Cc1ccc2c(c1)CCC2)C(=O)O (stereo not given)', 'TGI', '> 100 µM'),
  ('CCN1CN(c2ccccc2)C2(CCN(CC3COc4ccccc4O3)CC2)C1=O (stereo not given)', 'TGI', '57.9 µM'),
  ('COCC(OC)C(CC=C(C#N)C#N)OC (stereo not given)', 'TGI', '> 100 µM'),
  ('COc1ccc(C2c3cn[nH]c3CC3CCCCC32)cc1 (stereo not given)', 'TGI', '73.2 µM'),
  ('Cc1cccc(C)c1NC(=O)C(Cc1c[nH]c2ccccc12)NC(=O)OCc1ccccc1 (stereo not given)', 'TGI', '55.3 µM'),
  ('NC1CCN(Cc2ccccc2)CC1', 'TGI', '> 100 µM'),
  ('CC(=NNC(=S)Nc1ccccc1)c1cccc(C(C)=NNC(=S)Nc2ccccc2)n1', 'TGI', '> 31.4 µM'),
  ('COC(C)(C)C1(O)CC[C@@H](C)CC1=O (stereo not given in full)', 'TGI', '> 100 µM'),
  ('S=c1c2cn[nH]c2nc2scc(-c3ccc(Cl)cc3)n12', 'TGI', '64.9 µM'),
  ('C/C(C[n+]1ccccc1)=N\N=C(N)N', 'TGI', '> 100 µM'),
  ('CSc1nc(SC)c2c(C#N)[nH]nc2n1', 'TGI', '> 100 µM'),
  ('O=c1c(F)cn(Cc2ccc(C34CC5CC(CC(C5)C3)C4)c(O)c2)c(=O)n1Cc1ccc(C23CC4CC(CC(C4)C2)C3)c(O)c1', 'TGI', '60.4 µM'),
  ('COc1ccc(OCC(=O)O)c2c1CCCC2=O', 'TGI', '> 100 µM'),
  ('S=c1[nH]c(=S)c2cc3ccccc3nc2[nH]1', 'TGI', '> 100 µM'),
  ('CC1CC2CCCC(O)=C2C(=O)O1 (stereo not given)', 'TGI', '> 100 µM'),
  ('O=C(O)CN1CCNCCN(CC(=O)O)CCN(CC(=O)O)CCNCC1', 'TGI', '> 100 µM'),
  ('NCCCN1c2ccccc2Sc2ccc(Cl)cc21', 'TGI', '> 10 µM'),
  ('O=C(CC1C(=O)Nc2ccccc2S1=O)Nc1cc(Cl)ccc1Cl (stereo not given)', 'TGI', '> 100 µM'),
  ('Cc1ccc(C2=CC(=O)OC(C[P+](c3ccccc3)(c3ccccc3)c3ccccc3)(c3ccccc3)O2)cc1 (stereo not given)', 'TGI', '46.1 µM'),
  ('CC(C)(C)c1cc(C(P(=O)(O)O)P(=O)(O)O)cc(C(C)(C)C)c1O', 'TGI', '> 100 µM'),
  ('CC(=O)NC1C(OCc2ccccc2)OC(CO)C(O)C1OCC(=O)N[C@@H](C)C(=O)N[C@H](CCC(=O)NCCCNc1c2ccccc2nc2cccc([N+](=O)[O-])c12)C(N)=O (stereo not given in full)', 'TGI', '0.242 µM');

Values compiled from PubChem BioAssay (NCI).
